- Experimental Target: α2-adrenoceptors
- Test Method Notes: α2-adrenoceptor competition binding ([3H]clonidine)
- Protocol Conditions: rat brain homogenates
pIC50: −log10 of the molar value.
Catalogue of pIC50 values

[
  {
    "Smiles Input": "CN1CCN(CCc2ccc(Cl)c(Cl)c2)CC1",
    "pIC50": "< 5.00"
  },
  {
    "Smiles Input": "CN(C)CCN(C)CCc1ccc(Cl)c(Cl)c1",
    "pIC50": "< 5.00"
  }
]

###

- Experimental Target: Dopamine (D2) receptors (Rattus norvegicus)
- Construct: from tissue; host or cells: rat brain homogenate / P2 membranes
- Sequence (P61169 whole entry): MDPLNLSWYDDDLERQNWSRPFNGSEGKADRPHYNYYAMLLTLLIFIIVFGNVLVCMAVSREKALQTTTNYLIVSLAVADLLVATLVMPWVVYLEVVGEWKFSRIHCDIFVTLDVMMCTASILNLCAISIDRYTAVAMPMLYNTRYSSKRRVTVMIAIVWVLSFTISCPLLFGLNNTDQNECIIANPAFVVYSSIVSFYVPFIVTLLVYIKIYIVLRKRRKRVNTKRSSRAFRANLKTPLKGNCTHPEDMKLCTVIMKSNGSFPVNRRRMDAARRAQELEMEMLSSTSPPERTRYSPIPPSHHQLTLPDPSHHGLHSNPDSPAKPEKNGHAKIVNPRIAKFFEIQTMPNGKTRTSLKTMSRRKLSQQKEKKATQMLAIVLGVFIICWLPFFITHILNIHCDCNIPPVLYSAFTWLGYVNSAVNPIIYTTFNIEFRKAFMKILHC
- Test Method Notes: Dopamine D2 receptor competition binding ([3H](−)sulpiride)
- Protocol Conditions: rat brain homogenates, [3H](−)sulpiride; read-out: Dopamine (D2)
Readout Name: IC50

[
  {
    "Smiles Input": "CN(CCc1ccc(N)cc1)CCN1CCCC1",
    "Readout Name": "IC50",
    "Reading": "> 10 µM"
  },
  {
    "Smiles Input": "COc1ccccc1CC(=O)N(C)CCN1CCCC1",
    "Readout Name": "IC50",
    "Reading": "> 10 µM"
  },
  {
    "Smiles Input": "CN1CCN(CCc2ccc(Cl)c(Cl)c2)CC1",
    "Readout Name": "IC50",
    "Reading": "> 10 µM"
  },
  {
    "Smiles Input": "CN(CCc1cccc(N)c1)CCN1CCCC1",
    "Readout Name": "IC50",
    "Reading": "> 10 µM"
  },
  {
    "Smiles Input": "CN(CCc1ccccc1N)CCN1CCCC1",
    "Readout Name": "IC50",
    "Reading": "> 10 µM"
  },
  {
    "Smiles Input": "CCCN(CCc1ccc(Cl)c(Cl)c1)CCN1CCCCC1",
    "Readout Name": "IC50",
    "Reading": "> 10 µM"
  },
  {
    "Smiles Input": "CN(CCc1cccc([N+](=O)[O-])c1)CCN1CCCC1",
    "Readout Name": "IC50",
    "Reading": "> 10 µM"
  },
  {
    "Smiles Input": "CN(CCc1ccc([N+](=O)[O-])cc1)CCN1CCCC1",
    "Readout Name": "IC50",
    "Reading": "> 10 µM"
  },
  {
    "Smiles Input": "COc1ccc(CC(=O)N(C)CCN2CCCC2)cc1",
    "Readout Name": "IC50",
    "Reading": "> 10 µM"
  },
  {
    "Smiles Input": "CN(CCc1ccccc1[N+](=O)[O-])CCN1CCCC1",
    "Readout Name": "IC50",
    "Reading": "> 10 µM"
  },
  {
    "Smiles Input": "COc1cccc(CC(=O)N(C)CCN2CCCC2)c1",
    "Readout Name": "IC50",
    "Reading": "> 10 µM"
  }
]
